# assay_method_text: Phytotoxicity against Oryza sativa (rice) assessed as inhibition of root length at 64 uM after 7 days at 25 degC
# Assay type: organism-based
# run_parameters: whole organism (rice plants, root growth)

{"columns": ["compound_string", "unit_name", "inhibition at 168 h, 64 µM"],
 "data": [
  ["O=C1COc2c(Cl)cccc2N1O", "%", 10]
]}

* * *

# Tested on: Echinochloa crus-galli
# assay_method_text: Herbicidal activity against Echinochloa crus-galli (barnyard grass) assessed as inhibition of root length after 5 days at 25 degC
# Assay type: functional, organism-based
# run_parameters: 120 h
pIC50: −log10 of the molar value.
Decision: pIC50 compared against 4; not below it gives criterion met, below it gives criterion not met.

{"columns": ["compound_string", "cat"],
 "data": [
  ["COc1ccc2c(c1OC)OCC(=O)N2O", "criterion not met"],
  ["O=C1COc2ccc(C(F)(F)F)cc2N1O", "criterion not met"],
  ["COC(=O)c1ccc2c(c1)N(O)C(=O)CO2", "criterion not met"],
  ["O=C1COc2c(ccc(F)c2F)N1O", "criterion met"],
  ["O=C1COc2ccc(Cl)cc2N1O", "criterion met"],
  ["COc1ccc2c(c1)N(O)C(=O)CO2", "criterion not met"],
  ["COc1ccc2c(c1)OCC(=O)N2O", "criterion not met"]
]}

* * *

# Tested on: Echinochloa crus-galli
# assay_method_text: Herbicidal activity against Echinochloa crus-galli (barnyard grass) assessed as inhibition of root length after 5 days at 25 degC
# Assay type: functional, organism-based
# run_parameters: 120 h
pIC50: −log10 of the molar value.
The label depends only on pIC50: fulfilled if it is at least 4, not fulfilled if it is smaller.

{"columns": ["compound_string", "target_or_test_system", "cat"],
 "data": [
  ["O=C1COc2c(F)cccc2N1O", "Echinochloa crus-galli", "fulfilled"],
  ["O=C1COc2ccc(F)cc2N1O", "Echinochloa crus-galli", "fulfilled"],
  ["O=C1COc2ccccc2N1O", "Echinochloa crus-galli", "not fulfilled"],
  ["COC(=O)c1ccc2c(c1)OCC(=O)N2O", "Echinochloa crus-galli", "not fulfilled"],
  ["O=C1COc2c(Cl)cccc2N1O", "Echinochloa crus-galli", "fulfilled"],
  ["O=C1COc2c(Cl)cc(Cl)cc2N1O", "Echinochloa crus-galli", "not fulfilled"]
]}

Data origin: ChEMBL document CHEMBL3045267
